Cited source for all entries: patent US8916577B2

Structures can show the parent of a compound that is named as a salt.
The next entries give measured IC50 for PIM-2 (Homo sapiens (Human), UniProt Q9P1W9).
Recorded metric: IC50

compound="COc1cc(C(=O)NC2CCN(C)CC2)ccc1Nc1ncc2c(n1)-c1c(c(C(=O)N[C@H](CN)c3ccccc3)nn1C)CCC2 [Compound 5, dihydrochloride]" readout_value="3.76 µM"
compound="CN1CCN(c2ccc(Nc3ncc4c(n3)-c3c(c(C(N)=O)nn3C)CCC4)cc2)CC1 [Compound 67, trifluoroacetate]" readout_value="3.6 µM"
compound="COc1cc(N2CCN(C)CC2)ccc1Nc1ncc2c(n1)-c1c(c(C(N)=O)nn1C)CCC2 [Compound 3]" readout_value="5.91 µM"

---

pIC50 values by entry
# Experimental target: UniProt:P33981
# Sequence (P33981 2-857): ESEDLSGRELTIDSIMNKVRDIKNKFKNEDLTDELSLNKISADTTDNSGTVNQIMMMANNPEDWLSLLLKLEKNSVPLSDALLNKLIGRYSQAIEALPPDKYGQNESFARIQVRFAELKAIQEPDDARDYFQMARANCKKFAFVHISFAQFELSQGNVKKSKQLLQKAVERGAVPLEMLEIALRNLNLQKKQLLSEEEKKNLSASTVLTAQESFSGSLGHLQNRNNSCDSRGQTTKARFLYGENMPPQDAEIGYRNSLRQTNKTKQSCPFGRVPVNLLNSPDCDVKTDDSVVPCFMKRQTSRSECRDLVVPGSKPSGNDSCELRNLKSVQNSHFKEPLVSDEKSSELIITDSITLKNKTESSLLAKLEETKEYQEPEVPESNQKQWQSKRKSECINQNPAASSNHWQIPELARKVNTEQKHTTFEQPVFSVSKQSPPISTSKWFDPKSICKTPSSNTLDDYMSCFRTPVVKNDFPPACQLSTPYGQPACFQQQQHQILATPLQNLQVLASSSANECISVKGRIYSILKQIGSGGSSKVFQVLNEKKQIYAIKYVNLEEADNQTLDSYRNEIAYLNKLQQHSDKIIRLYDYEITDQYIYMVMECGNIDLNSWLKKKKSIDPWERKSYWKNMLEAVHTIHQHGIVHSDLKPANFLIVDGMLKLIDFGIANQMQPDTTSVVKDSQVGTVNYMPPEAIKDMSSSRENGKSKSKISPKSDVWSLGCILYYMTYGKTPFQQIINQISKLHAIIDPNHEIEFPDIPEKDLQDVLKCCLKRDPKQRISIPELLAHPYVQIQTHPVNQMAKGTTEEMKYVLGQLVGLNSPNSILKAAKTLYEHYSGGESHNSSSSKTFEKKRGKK
pIC50: −log10 of the molar value. Structures can show the parent of a compound that is named as a salt.
Recorded metric: pIC50

molecule="CCc1cccc(CC)c1NC(=O)c1onc2c1CCCc1cnc(Nc3ccc(N4CCN(C)CC4)cc3OC)nc1-2 [Compound 101]" recorded_metric=pIC50 readout_value=6.51
molecule="CN1CCN(c2ccc(Nc3ncc4c(n3)-c3c(c(C(N)=O)nn3C)CCC4)cc2)CC1 [Compound 67, trifluoroacetate]" recorded_metric=pIC50 readout_value=5.92
molecule="CCc1cccc(CC)c1NC(=O)c1nn(CC(F)(F)F)c2c1CCCc1cnc(Nc3ccc(N4CCN(C)CC4)cc3OC)nc1-2 [Compound 56]" recorded_metric=pIC50 readout_value=6.06
molecule="CCc1cccc(CC)c1NC(=O)c1c2c(nn1C)-c1nc(Nc3ccc(N4CCN(C)CC4)cc3OC)ncc1CCC2 [Compound 97]" recorded_metric=pIC50 readout_value=6.07
molecule="CCc1cccc(CC)c1NC(=O)c1nn(CCO)c2c1CCCc1cnc(Nc3ccc(N4CCC(N(C)C)CC4)cc3OC)nc1-2 [Compound 71, trifluoroacetate]" recorded_metric=pIC50 readout_value=6.76
molecule="CCc1cccc(CC)c1NC(=O)c1nn(C)c2c1CCCc1cnc(Nc3ccc(C(=O)NC4CCN(C)CC4)cc3OC)nc1-2 [Compound 35]" recorded_metric=pIC50 readout_value=7.18
molecule="CCc1cccc(C)c1NC(=O)c1nn(C)c2c1CCCc1cnc(Nc3ccc(N4CCN(C)CC4)cc3OC)nc1-2 [Compound 27]" recorded_metric=pIC50 readout_value=6.72
molecule="CCc1cccc(CC)c1NC(=O)c1nn(C)c2c1CCCc1cnc(Nc3ccc(N4CCN(C)CC4)cc3OC)nc1-2 [Compound 4]" recorded_metric=pIC50 readout_value=6.74
molecule="COc1cc(N2CCN(C)CC2)ccc1Nc1ncc2c(n1)-c1c(c(C(N)=O)nn1C)CCC2 [Compound 3]" recorded_metric=pIC50 readout_value=6.71
molecule="CCc1cccc(CC)c1NC(=O)c1noc2c1CCCc1cnc(Nc3ccc(N4CCN(C)CC4)cc3OC)nc1-2 [Compound 99]" recorded_metric=pIC50 readout_value=6.87
molecule="COc1cc(N2CCN(C)CC2)ccc1Nc1ncc2c(n1)-c1c(c(C(=O)NC3CCCCC3)nn1C)CCC2 [Compound 28]" recorded_metric=pIC50 readout_value=6.60
molecule="CNC(=O)c1nn(C)c2c1CCCc1cnc(Nc3ccc(Br)cc3OC)nc1-2 [Compound 32]" recorded_metric=pIC50 readout_value=6.56
molecule="CCc1cccc(CC)c1NC(=O)c1nn(C)c2c1CCCc1cnc(Nc3ccc(C(=O)N4CCCN(C)CC4)cc3OC(F)(F)F)nc1-2 [Compound 43]" recorded_metric=pIC50 readout_value=6.70
molecule="COc1cc(N2CCN(C)CC2)ccc1Nc1ncc2c(n1)-c1c(c(C(=O)Nc3ccccc3)nn1C)CCC2 [Compound 8]" recorded_metric=pIC50 readout_value=6.45
molecule="COc1cc(C(=O)NC2CCN(C)CC2)ccc1Nc1ncc2c(n1)-c1c(c(C(=O)N[C@H](CN)c3ccccc3)nn1C)CCC2 [Compound 5, dihydrochloride]" recorded_metric=pIC50 readout_value=6.33
molecule="COc1cc(Br)ccc1Nc1ncc2c(n1)-c1c(c(C(N)=O)nn1C)CCC2 [Compound 1]" recorded_metric=pIC50 readout_value=6.38
